Recorded values, source ChEMBL document CHEMBL3217444.

targetOfAssay: Dihydrofolate reductase (Staphylococcus aureus)
assayProtocol: Inhibition of methicillin-resistant Staphylococcus aureus DHFR
observedProperty: pIC50
pIC50 is a log-scale quantity: -log10 of the concentration expressed in molar.

Entry CCc1nc(N)nc(N)c1C#CCc1cc(OC)ccc1OC — recorded pIC50 = 7.17

###

targetOfAssay: Dihydrofolate reductase (Staphylococcus aureus, UniProt P0A017, F99Y)
assayProtocol: Inhibition of methicillin-resistant Staphylococcus aureus DHFR F98Y mutant
Catalogue of pIC50 values
pIC50 is a log-scale quantity: -log10 of the concentration expressed in molar.

CCc1nc(N)nc(N)c1C#CC(C)c1cc(OC)cc(-c2ccncc2)c1 (stereo not drawn); 6.77

Entry CCc1nc(N)nc(N)c1C#CCc1cc(OC)ccc1OC — recorded pIC50 = 6.17

Entry COc1cc(-c2ccccc2)cc(C(C)C#Cc2c(C)nc(N)nc2N)c1 (stereo not drawn) — recorded pIC50 = 6.72
